All figures here come from patent US20240226314A1.

Biological target: T1, His-tagged human TfR ectodomain (hTFRC_89-760_G142S; mature protein) (human, UniProt P02786 89-760)
T1 construct: It carries the G142S haplotype; also called hTfR ectodomain
T1 sequence (P02786 89-760 G142S): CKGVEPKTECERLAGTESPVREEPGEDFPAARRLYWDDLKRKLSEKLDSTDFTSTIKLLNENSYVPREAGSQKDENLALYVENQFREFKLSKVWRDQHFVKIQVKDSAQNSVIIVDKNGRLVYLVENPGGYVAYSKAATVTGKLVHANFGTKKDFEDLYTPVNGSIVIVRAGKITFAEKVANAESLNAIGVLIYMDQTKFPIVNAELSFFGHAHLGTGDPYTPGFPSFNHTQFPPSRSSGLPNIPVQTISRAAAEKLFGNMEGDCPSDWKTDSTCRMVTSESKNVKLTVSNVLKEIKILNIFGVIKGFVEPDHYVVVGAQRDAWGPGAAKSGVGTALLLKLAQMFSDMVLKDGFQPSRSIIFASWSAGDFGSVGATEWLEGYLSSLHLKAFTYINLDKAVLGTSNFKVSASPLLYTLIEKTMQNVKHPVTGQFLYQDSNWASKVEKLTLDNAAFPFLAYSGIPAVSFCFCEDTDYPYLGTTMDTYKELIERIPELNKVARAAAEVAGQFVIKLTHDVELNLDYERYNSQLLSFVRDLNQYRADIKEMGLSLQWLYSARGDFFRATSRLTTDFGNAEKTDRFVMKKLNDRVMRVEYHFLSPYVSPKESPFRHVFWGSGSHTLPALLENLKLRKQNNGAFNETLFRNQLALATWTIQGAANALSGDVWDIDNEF
Assay: SPR, His-tagged TfR ectodomain captured on anti-His, 1:1 fit
measuredAttribute: Kd (nM)
Kindly provide the numeric value in nM only, without the unit symbol.

# example entries with known answers
531_1L2_variant3 Fab (Fab, V domains shown, Humanized Fab; The His-tag was removed with TEV protease before SPR) VH: EVQLLESGGGLVQPGGSLRLSCAASGYTFTRYWLNWVRQAPGKGLEWIGMIDPSVSETHYADSVKGRATLSVDKSKNTAYLQMNSLRAEDTAVYYCSQIRLPYYYAMDSWGQGTTVTVSS VL: DIQMTQSPSSLSASVGDRVTITCRASQDINSFLNWYQQKPGKAVKLLIYYTSRLQSGVPSRFSGSGSGTDYTLTISSLQPEDFATYFCQQGNTLPRTFGGGTKVEIK :: 183
531_1L2_variant21 Fab (Fab, V domains shown, Humanized Fab; The His-tag was removed with TEV protease before SPR) VH: QVQLVQSGAEVKKPGASVKVSCKASGYTFTRYYLNWVRQAPGQGLEWIGMIDPSVSETHYAQKFQGRATLTVDKSTSTAYMELSSLRSEDTAVYYCSQIRLPYYYAMDSWGQGTTVTVSS VL: DIQMTQSPSSLSASVGDRVTITCRASQDISSFLNWYQQKPGKAVKLLIYYTSRLQSGVPSRFSGSGSGTDYTLTISSLQPEDFATYFCQQGNTLPRTFGGGTKVEIK :: 3.71

Below: the item to evaluate.
Data request, read-out Kd, for 531_1L2_variant4 Fab (Fab, V domains shown, Humanized Fab; The His-tag was removed with TEV protease before SPR) VH: EVQLLESGGGLVQPGGSLRLSCAASGYTFTRYYLNWVRQAPGKGLEWIGMIDPSVSETHYADSVKGRATLSVDKSKNTAYLQMNSLRAEDTAVYYCSQIRLPYYYAMDSWGQGTTVTVSS VL: DIQMTQSPSSLSASVGDRVTITCRASQDINSFLNWYQQKPGKAVKLLIYYTSRLQSGVPSRFSGSGSGTDYTLTISSLQPEDFATYFCQQGNTLPRTFGGGTKVEIK
120
